# test-summary: chemical genetic growth profiling, strain panel (AID 1159580);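 further: tested at 20 µM; growth read once vehicle control cultures reached saturation at 30 °C; lower values mean less growth of the strain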
# settings: S. cerevisiae deletion strains, growth OD, locus YKR001C, strain vps1
The whole screen tested about 5,500 compounds, of which about 2,000 (36%) were called active. Roughly 18% stayed inconclusive and do not appear here. No stated cut-off is given here; in the data, active means normalized growth mostly below about 0.91 (no sharp cut-off); inconclusive means no clear call, values can overlap the other calls; inactive means mostly above about 0.92. The list shows a part of the results.
Labels: active, inactive

[[record]]
compound = "CC(=O)O[C@@H]1CC[C@@]2(C)C(C[C@@H](OC(C)=O)[C@@]3(C)C4=CC(=O)O[C@@H](c5ccoc5)[C@]4(C)CCC23)C1(C)C (stereo partly specified)"
assigned_category = "inactive"

[[record]]
compound = "CC1(C)CC2C1CC[C@]1(CBr)CCC3C(CC(=O)O)C(=O)O[C@@]32C1 (stereo partly specified)"
assigned_category = "inactive"

[[record]]
compound = "O=C(O)c1cc(O)c2c(c1)[C@@H]([C@H]1c3cc(C(=O)O)cc(O)c3C(=O)c3c(O[C@H]4O[C@H](CO)[C@@H](O)[C@H](O)[C@H]4O)cccc31)c1cccc(O[C@H]3O[C@H](CO)[C@@H](O)[C@H](O)[C@H]3O)c1C2=O"
assigned_category = "inactive"

[[record]]
compound = "CC(=O)O[C@@H]1C=C[C@@]2(C)C(C[C@@H](OC(C)=O)[C@@]3(C)C4=CC(=O)O[C@@H](c5ccoc5)[C@]4(C)CCC23)C1(C)C (stereo partly specified)"
assigned_category = "active"

[[record]]
compound = "CC(=O)O[C@@H]1CC2C(C)(C)C(=O)C=C[C@]2(C)C2CC[C@]3(C)C(=CC(=O)O[C@H]3c3ccoc3)[C@@]21C (stereo partly specified)"
assigned_category = "inactive"

[[record]]
compound = "CC12CCC3C(CC3(C)C)C(C)(CCC1=O)O2 (stereo unspecified)"
assigned_category = "inactive"

